biological target: hNav 1.1 sodium channel isoform (Homo sapiens); construct: expressed in transfected cells; host or cells: HEK293, transient transfection (Qiagen Superfect); assay: hNav1.1 whole-cell voltage-clamp assay; type: cell-based; conditions: frequency of 25 Hz; read-out: IC50 block of hNav 1.1
Reported Endpoint: IC50 (µM)

| Compound | Reported Endpoint | Measured Value |
| --- | --- | --- |
| O=C1c2cc(-c3ccc(OC(F)(F)F)cc3)ccc2OCCN1Cc1ncccn1 [II-73] | IC50 | 3.4 |

----------
biological target: wild-type human cardiac sodium channel, hNav1.5 (Homo sapiens); test: Peak INa screening assay (tonic and use-dependent block); assay type: cell-based; conditions: tonic block of peak INa, 0.1 Hz; compound at 1 μM; read-out: Peak TB 1 μM
Sequence (Q14524 whole entry): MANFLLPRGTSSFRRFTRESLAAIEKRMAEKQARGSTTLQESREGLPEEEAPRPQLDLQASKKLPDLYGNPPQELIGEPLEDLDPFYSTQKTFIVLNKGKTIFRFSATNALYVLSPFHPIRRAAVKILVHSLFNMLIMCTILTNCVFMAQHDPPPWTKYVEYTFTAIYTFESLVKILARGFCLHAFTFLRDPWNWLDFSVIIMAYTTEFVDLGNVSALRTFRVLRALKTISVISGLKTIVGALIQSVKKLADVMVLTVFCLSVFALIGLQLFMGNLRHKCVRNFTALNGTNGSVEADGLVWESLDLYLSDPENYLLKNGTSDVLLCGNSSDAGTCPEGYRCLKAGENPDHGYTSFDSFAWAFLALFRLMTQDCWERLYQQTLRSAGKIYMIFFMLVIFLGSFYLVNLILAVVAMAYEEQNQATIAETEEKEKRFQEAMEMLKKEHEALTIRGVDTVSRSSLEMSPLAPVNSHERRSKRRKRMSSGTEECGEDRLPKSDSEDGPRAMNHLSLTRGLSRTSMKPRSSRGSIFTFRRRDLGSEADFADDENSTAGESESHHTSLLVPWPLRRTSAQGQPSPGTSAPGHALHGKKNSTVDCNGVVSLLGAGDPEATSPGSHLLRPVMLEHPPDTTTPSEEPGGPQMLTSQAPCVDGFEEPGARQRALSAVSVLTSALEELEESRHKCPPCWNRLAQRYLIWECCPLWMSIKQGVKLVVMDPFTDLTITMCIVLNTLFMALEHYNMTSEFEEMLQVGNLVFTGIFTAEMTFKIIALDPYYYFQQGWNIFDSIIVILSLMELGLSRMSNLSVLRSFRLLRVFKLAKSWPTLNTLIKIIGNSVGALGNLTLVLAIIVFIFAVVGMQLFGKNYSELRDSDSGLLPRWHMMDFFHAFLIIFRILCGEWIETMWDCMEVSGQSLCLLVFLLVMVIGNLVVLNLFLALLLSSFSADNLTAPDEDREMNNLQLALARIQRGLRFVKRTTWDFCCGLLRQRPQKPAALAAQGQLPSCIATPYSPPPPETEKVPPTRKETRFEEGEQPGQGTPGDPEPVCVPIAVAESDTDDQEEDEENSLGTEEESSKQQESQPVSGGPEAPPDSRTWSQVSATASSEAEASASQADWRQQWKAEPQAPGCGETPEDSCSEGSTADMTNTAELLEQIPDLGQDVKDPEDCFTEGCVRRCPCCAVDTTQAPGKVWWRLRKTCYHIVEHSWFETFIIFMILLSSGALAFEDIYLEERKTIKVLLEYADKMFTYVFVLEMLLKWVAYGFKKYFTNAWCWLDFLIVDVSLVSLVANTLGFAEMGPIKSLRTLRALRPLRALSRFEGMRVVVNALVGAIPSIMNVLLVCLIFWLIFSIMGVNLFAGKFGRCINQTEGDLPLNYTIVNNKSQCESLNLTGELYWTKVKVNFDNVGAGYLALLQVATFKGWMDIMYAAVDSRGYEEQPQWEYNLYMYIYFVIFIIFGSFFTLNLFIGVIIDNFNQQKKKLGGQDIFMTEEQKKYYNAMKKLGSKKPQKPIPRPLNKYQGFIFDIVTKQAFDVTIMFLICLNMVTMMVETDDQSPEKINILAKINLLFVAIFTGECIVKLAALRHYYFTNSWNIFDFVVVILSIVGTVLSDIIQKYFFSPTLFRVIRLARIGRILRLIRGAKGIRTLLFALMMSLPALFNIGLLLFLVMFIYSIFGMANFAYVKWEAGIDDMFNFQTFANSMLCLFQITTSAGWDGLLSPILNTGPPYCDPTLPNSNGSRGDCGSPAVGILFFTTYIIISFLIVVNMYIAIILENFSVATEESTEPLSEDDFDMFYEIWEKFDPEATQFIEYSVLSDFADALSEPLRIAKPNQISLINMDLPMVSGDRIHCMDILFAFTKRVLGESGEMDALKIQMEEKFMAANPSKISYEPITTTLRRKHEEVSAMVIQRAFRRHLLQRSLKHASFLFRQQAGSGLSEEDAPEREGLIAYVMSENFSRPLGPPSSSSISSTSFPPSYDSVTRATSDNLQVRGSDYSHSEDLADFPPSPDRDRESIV
Parameter inhibition at 1 µM: see the listing below.

| Line Notation | U | inhibition at 1 µM |
| --- | --- | --- |
| O=C1c2cc(-c3ccc(Cl)c(F)c3)ccc2OCCN1Cc1ccccn1 | % | 34 |
| O=C1c2cc(-c3ccc(C(F)(F)F)cc3F)ccc2OCCN1Cc1ncccn1 | % | 9 |
| O=C1c2cc(-c3ccc(C(F)(F)F)cc3)ccc2OCCN1Cc1ccccc1 | % | 40 |
| O=C1c2cc(-c3ccc(OC(F)(F)F)cc3)ccc2OCCN1Cc1ccccc1F | % | 50 |
| O=C1c2cc(-c3ccc(OC(F)(F)F)cc3)ccc2OCCN1Cc1cnccn1 | % | 9 |
